test system: MDA-MB-231; experiment: Antimigratory activity against tetracycline-induced KRS T52D mutant overexpressing human MDA-MB-231 cells assessed as inhibition of cell migration at 3 uM measured after 4 hrs by flourescence plate reader method; assay type: functional
Active and inactive are the calls of the source. The rule behind the calls is not given here.
Use one of these outcomes when replying: active, inactive

{"columns": ["chemicalStructure", "label"],
 "data": [
  ["COc1ccc(CCN(Cc2ccc(C(=O)O)cc2)c2nc3cncnc3s2)cc1", "inactive"],
  ["COc1ccc(CCN(Cc2ccc(C(=O)O)cc2)c2nc3cnccc3s2)cc1", "inactive"],
  ["COc1ccc(CCN(Cc2ccc(C(=O)O)cc2)c2nc3cc(Cl)cnc3s2)cc1", "inactive"],
  ["COc1ccc(CCN(Cc2ccc(C(=O)O)cc2)c2nc3cc(NC(=O)Cc4ccc(OC)cc4)ccc3o2)cc1", "active"]
]}

(Q) Please share the test call associated with COc1ccc(CCN(Cc2ccc(C(=O)O)cc2)c2nc3ccc[n+]([O-])c3s2)cc1 .
(A) inactive

(Q) Please share the test call associated with COc1ccc(CCN(Cc2ccc(C(=O)O)cc2)c2nc3cc(NC(=O)c4ccc(N5CCN(C)CC5)cc4)ccc3o2)cc1 .
(A) inactive

(Q) Please share the test call associated with COc1ccc(CCN(Cc2ccc(C(=O)O)cc2)c2nc3ccccc3o2)cc1 .
(A) active

(Q) Please share the test call associated with COc1ccc(CCN(Cc2ccc(C(=O)O)cc2)c2nc3cc([N+](=O)[O-])ccc3o2)cc1 .
(A) active

(Q) Please share the test call associated with COc1ccc(CCN(Cc2ccc(C(=O)O)cc2)c2nc3cccnc3o2)cc1 .
(A) active

* * *

assay: Half life in mouse at 5 mg/kg, iv measured after 24 hrs; format: ADME, organism-based; conditions: in vivo
quantity: half-life (h)
One number for each entry, in h.

(Q) I have this molecule here, COc1ccc(CCN(Cc2ccc(C(=O)O)cc2)c2nc3cccnc3s2)cc1 , and I need its recorded half-life.
(A) 6.05

* * *

assay: AUC(infinity) in mouse at 5 mg/kg, po measured after 24 hrs; assay type: ADME, organism-based; set-up: route oral, dose 5 mg/kg, time 24 hrs; conditions: in vivo
quantity: AUC(0-inf) (ng·h/mL)
Give bare numbers, in ng·h/mL.

(Q) I have this compound here, COc1ccc(CCN(Cc2ccc(C(=O)O)cc2)c2nc3cccnc3s2)cc1 , and I need its recorded AUC(0-inf).
(A) 192

* * *

assay: AUC(t) in mouse at 5 mg/kg, iv measured after 24 hrs; format: ADME, organism-based; parameters: route intravenous, dose 5 mg/kg, time 24 hrs; details: in vivo
quantity: AUC(0-t) at 24 h (ng·h/mL)
Numbers only, in ng·h/mL.

(Q) I have this compound here, COc1ccc(CCN(Cc2ccc(C(=O)O)cc2)c2nc3cccnc3s2)cc1 , and I need its recorded AUC(0-t) at 24 h.
(A) 191

* * *

assay: Tmax in mouse at 5 mg/kg, po measured after 24 hrs; assay type: ADME, organism-based; settings: in vivo
quantity: Tmax (h)
Answers are plain numbers, in h.

(Q) I have this compound here, COc1ccc(CCN(Cc2ccc(C(=O)O)cc2)c2nc3cccnc3s2)cc1 , and I need its recorded Tmax.
(A) 4.17

* * *

experiment: Metabolic stability in mouse liver microsomes assessed as parent compound remaining measured after 30 mins; type: ADME, Microsome; conditions: read-out: Stabilty
quantity: remaining at 0.5 h
Returns: string containing the number followed by the unit.

(Q) I have this compound here, COc1ccc(CCN(Cc2ccc(C(=O)O)cc2)c2nc3cccnc3s2)cc1 , and I need its recorded remaining at 0.5 h.
(A) 65.8%
